meta.source: PubChem BioAssay (EPA / NIEHS)

# experimental_target: human CYP2D6, CYP2D6 (gene 1565)
# procedure_text: NVS_ADME_hCYP2D6: NovaScreen (NVS) CYP450-related Enzyme Activity (ADME) Assay for human CYP2D6 (AID 2283107)
Active and inactive are the calls of the source. Rule for the calls: active = hit-call score of the fitted dose curve at least 0.9, where 1 is the maximum; inconclusive = response in the unintended direction; inactive = score below 0.9.
reported_property: AC50

>  <chemical_smiles>
COP(=S)(OC)Oc1ccc([N+](=O)[O-])cc1

>  <AC50>
4.79 µM (active)

$$$$
>  <chemical_smiles>
COc1nn(CSP(=S)(OC)OC)c(=O)s1

>  <AC50>
3.83 µM (active)

$$$$

stdin: Consider the compound shown here: CCCN(CCOc1c(Cl)cc(Cl)cc1Cl)C(=O)n1ccnc1 What is its recorded AC50?
stdout: 2.18 µM (active)

stdin: Another compound: Oc1ccc(Cl)cc1Cc1ccccc1
stdout: 10 µM (active)

----------
# procedure_text: APR_HepG2_MitoMembPot_24hr: Apredica 24-hour HepG2 Assay for Mitochondrial Membrane Potential (AID 2282911)
# settings: imaging, actives raise or lower the signal
Activity calls are given as the source filed them. How the source made its calls: active means hit-call score of the fitted dose curve at least 0.9, where 1 is the maximum; inactive means score below 0.9.

>  <chemical_smiles>
N#CN

>  <outcome>
inactive

$$$$
>  <chemical_smiles>
O=C(O)COc1ccc(Cl)cc1Cl

>  <outcome>
inactive

$$$$
>  <chemical_smiles>
CC(C)N(C(=O)COc1nnc(C(F)(F)F)s1)c1ccc(F)cc1

>  <outcome>
inactive

$$$$

----------
# Tested on: SRD5A2 (gene 6716)
# procedure_text: CCTE_Deisenroth_5AR_NBTE_ratio: CCTE's 5alpha-reductase NanoBRET Target Engagement Assay - Ratio, Deisenroth Lab (AID 2284322)
# settings: actives raise or lower the signal
Activity calls are given as the source filed them. How the source made its calls: active means hit-call score of the fitted dose curve at least 0.9, where 1 is the maximum; inactive means score below 0.9.
reported_property: AC50

>  <compound>
CC1(c2ccc(Oc3ccccc3)cc2)OC(=O)N(Nc2ccccc2)C1=O (centres undefined)

>  <reported_property>
AC50

>  <result>
9.91 µM (active)

$$$$
>  <compound>
O=[N+]([O-])/N=C1\NCCN1Cc1ccc(Cl)nc1

>  <reported_property>
AC50

>  <result>
inactive

$$$$
>  <compound>
ClC1C(Cl)C(Cl)C(Cl)C(Cl)C1Cl (centres undefined)

>  <reported_property>
AC50

>  <result>
inactive

$$$$
>  <compound>
O=C1c2ccccc2C(=O)N1SC(Cl)(Cl)Cl

>  <reported_property>
AC50

>  <result>
inactive

$$$$

----------
# experimental_target: zebrafish Thyroid Hormone Receptor alpha (TRa), thraa (gene 30670)
# procedure_text: ATG_zfTRa_XSP1: Attagene TRANS-FACTORIAL Multi-Species (XSP1) HepG2 Assay for zebrafish Thyroid Hormone Receptor alpha (TRa) (AID 2283807)
# Procedure: ATG_XSP1_multi-species_TRANS is a cell-based, multiplexed assay created by modifying the existing Attagene TRANS-FACTORIAL system to include a panel of nuclear receptors from some or all the following species: human (Homo sapiens), mouse (Mus musculus), frog (Xenopus laevis), zebrafish (Danio rerio), chicken (Gallus gallus), and turtle (Chrysemys picta). The ECOTOX-FACTORIAL format uses HepG2, a human liver cell line, with measurements taken at 24 hours after chemical dosing in a 24-well plate. […]
Records with an inconclusive call do not appear. Calls of active or inactive are those of the source. The calls were made as follows: active = hit-call score of the fitted dose curve at least 0.9, where 1 is the maximum; inconclusive = response in the unintended direction; inactive = score below 0.9.
Pick one: active, inactive

Solved cases (4 shown):
>  <compound>
CC1(C)C(C=C(Cl)Cl)C1C(=O)OC(C#N)c1ccc(F)c(Oc2ccccc2)c1 (stereo not given)

>  <assigned_class>
inactive

$$$$
>  <compound>
CCCN(CCOc1c(Cl)cc(Cl)cc1Cl)C(=O)n1ccnc1

>  <assigned_class>
inactive

$$$$
>  <compound>
O=S(=O)(O)C(F)(F)C(F)(F)C(F)(F)C(F)(F)C(F)(F)C(F)(F)C(F)(F)C(F)(F)F

>  <assigned_class>
active

$$$$
>  <compound>
Oc1ccc(Cl)cc1Cc1ccccc1

>  <assigned_class>
inactive

$$$$

# next compound below
stdin: Lab log entry: CCCN(CCC)c1c([N+](=O)[O-])cc(C(F)(F)F)cc1[N+](=O)[O-] — outcome as called in the assay?
stdout: inactive
